Please respond with reported melting point for every item in the list.

Input line: Given CN(C)/C=N/c1cncc(C(=O)NC2=Nc3ccccc3C3=NCCN23)c1 , state its recorded melting point.
Output line: 219 °C (dec.)

Input line: Recorded melting point for COc1cccc2c1N=C(NC(=O)c1cccnc1)N1CCN=C21 , please?
Output line: 110 °C

Input line: What value of melting point has been recorded for this entry: O=C(NC1=Nc2cc(Cl)ccc2C2=NCCN12)c1cccnc1
Output line: 254 °C

Input line: Look up melting point for this compound: COCOc1ccc2c(c1OC)N=C(/C=C(\O)c1cccnc1)N1CCN=C21
Output line: 215 to 216 °C

Input line: Give the measured melting point of COc1ccc(CC(=O)NC2=Nc3ccccc3C3=NCCN23)cc1 .
Output line: 167 to 168 °C

Input line: Consider the compound shown here: CN(C)c1cccc(C(=O)NC2=Nc3ccccc3C3=NCCN23)c1.Cl What is its recorded melting point?
Output line: 266 °C (dec.)

====

Where a name gives a salt, the structure may show the parent alone.
PARAMETER: melting point (°C)
Express the result in °C but write the number alone.

Input line: So what does the record say about melting point for COc1c(O)ccc2c1N=C(/C=C(\O)c1cccnc1)N1CCN=C21 (as salt: hydrochloride) [Example 1-4] ?
Output line: 245

Input line: What melting point value was documented for this compound, COc1cc2c(cc1OC)C1=NCCN1C(NC(=O)c1ccc(NC(C)=O)nc1)=N2 [Example 2-57] ?
Output line: 224

====

Provide the recorded IC50 for the entries that follow.
Target: Recombinant human PI3Kγ (full length human PI3K p110γ) (Homo sapiens)
Construct: full length human PI3K p110γ fused with a His6-tag at the C-terminus; His6 (C); purchased ALEXIS BIOCHEMICALS #201-055-C010; host or cells: S. frugiperda 9 insect cells
Sequence (P48736 whole entry, the tested form may be a part): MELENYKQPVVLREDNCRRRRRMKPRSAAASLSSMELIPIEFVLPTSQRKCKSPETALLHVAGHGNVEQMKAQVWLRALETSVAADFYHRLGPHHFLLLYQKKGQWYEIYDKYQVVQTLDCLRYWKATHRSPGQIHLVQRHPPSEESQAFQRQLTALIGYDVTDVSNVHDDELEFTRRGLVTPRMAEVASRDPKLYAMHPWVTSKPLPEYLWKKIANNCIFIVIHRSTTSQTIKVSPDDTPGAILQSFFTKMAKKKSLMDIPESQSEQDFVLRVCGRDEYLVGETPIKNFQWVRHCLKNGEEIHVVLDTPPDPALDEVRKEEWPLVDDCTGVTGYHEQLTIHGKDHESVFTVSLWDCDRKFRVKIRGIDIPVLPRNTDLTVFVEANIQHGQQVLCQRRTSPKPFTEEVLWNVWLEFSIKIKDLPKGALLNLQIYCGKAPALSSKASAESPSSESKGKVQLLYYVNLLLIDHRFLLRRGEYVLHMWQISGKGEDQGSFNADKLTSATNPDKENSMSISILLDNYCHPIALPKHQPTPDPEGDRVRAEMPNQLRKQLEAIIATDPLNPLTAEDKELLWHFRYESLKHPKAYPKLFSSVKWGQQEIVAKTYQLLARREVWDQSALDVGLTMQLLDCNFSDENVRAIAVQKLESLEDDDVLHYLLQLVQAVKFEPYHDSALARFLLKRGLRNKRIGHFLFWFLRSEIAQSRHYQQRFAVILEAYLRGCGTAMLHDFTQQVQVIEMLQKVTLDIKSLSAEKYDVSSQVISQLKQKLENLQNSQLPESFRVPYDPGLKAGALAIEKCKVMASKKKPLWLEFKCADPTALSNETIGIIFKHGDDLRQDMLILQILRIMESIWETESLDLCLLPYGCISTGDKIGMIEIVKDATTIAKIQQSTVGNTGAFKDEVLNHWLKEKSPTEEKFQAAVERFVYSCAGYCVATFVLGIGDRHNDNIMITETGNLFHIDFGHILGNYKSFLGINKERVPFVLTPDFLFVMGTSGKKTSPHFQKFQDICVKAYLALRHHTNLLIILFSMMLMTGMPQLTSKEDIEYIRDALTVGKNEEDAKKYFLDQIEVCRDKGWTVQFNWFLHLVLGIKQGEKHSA
Assay: Kinase assay of PI3Kγ (solid-phase lipid kinase assay)
Format: biochemical
Conditions: Table 1, isozyme not given; read-out: in vitro

Input line: # lookup: IC50 of Cc1cc(Br)c2c(c1)C1=NCCN1C(/C=C(\O)c1cccnc1)=N2.Cl
Output line: 100 to 500 nM

Input line: What does the record list as IC50 for CC(=O)Nc1ccc(/C(O)=C/C2=Nc3nc(C)ccc3C3=NCCN23)cn1 ?
Output line: 100 to 500 nM

Input line: So what's the measured IC50 for this one? O=[N+]([O-])c1ccc(/C(O)=C/C2=Nc3ccccc3C3=NCCN23)cc1
Output line: > 2000 nM

Input line: GET /values?readout=IC50&item= CN1CCN(c2ccc3c(c2)N=C(/C=C(\O)c2ccc4[nH]cnc4c2)N2CCN=C32)CC1.Cl
Output line: 100 to 500 nM

Input line: For O/C(=C\C1=Nc2cc(CN3CCOCC3)ccc2C2=NCCN12)c1cccnc1 , what is its reported IC50?
Output line: 100 to 500 nM

Input line: // query IC50 value for entry COc1cc2c(c(OC)c1C)N=C(/C=C(\O)c1ccc(NC(C)=O)nc1)N1CCN=C21
Output line: < 100 nM

Input line: Given the entry O/C(=C\C1=Nc2ccccc2C2=NCCN12)C(Cl)(Cl)Cl , report its measured IC50.
Output line: 100 to 500 nM

====

Give measured melting point for each item. Keep answers brief.

Input line: Record request: melting point value, item CNc1ccc(/C(O)=C/C2=Nc3ccccc3C3=NCCN23)cn1
Output line: 232 to 237 °C

Input line: Any idea what melting point was measured for Cc1ccc2c(c1)N=C(NC(=O)c1cccnc1)N1CCN=C21.Cl ?
Output line: 315 °C

Input line: Data request, read-out melting point, for CC(C)(C)OC(=O)COc1cccc2c1N=C(/C=C(\O)c1cccnc1)N1CCN=C21.Cl
Output line: 222 to 223 °C

Input line: Field request: melting point | item: Cl.O=C(O)COc1ccc2c(c1)N=C(NC(=O)c1cccnc1)N1CCN=C21
Output line: 231 °C (dec.)

Input line: Requested read-out: melting point. Entry: Cc1cc(Br)c2c(c1)C1=NCCN1C(NC(=O)c1ccc3[nH]cnc3c1)=N2
Output line: > 290 °C

Input line: Name the recorded melting point for O=C(NC1=Nc2cc(OCCCO)ccc2C2=NCCN12)c1cccnc1 .
Output line: 127 °C

Input line: Name the reported melting point value associated with the molecule COc1cc2c(c(OC)c1C)N=C(NC(=O)c1cccnc1C)N1CCN=C21.Cl
Output line: 230 °C (dec.)

Input line: Param item = Cl.O=C(NC1=Nc2ccccc2C2=NCCN12)c1csc(-c2cccnc2)n1 ; retrieve measured melting point.
Output line: 310 °C (dec.)

Input line: Bench note: what melting point did O=C(NC1=Nc2ccccc2C2=NCCN12)C(Cl)(Cl)Cl show?
Output line: 194 °C (dec.)

Input line: Endpoint output: melting point of O/C(=C\C1=Nc2cc(N3CCOCC3)ccc2C2=NCCN12)c1cncc(O)c1 . Value?
Output line: 337 °C (dec.)

Input line: // lookup melting point for O/C(=C\C1=Nc2c(cccc2C(F)(F)F)C2=NCCN12)c1cccnc1
Output line: 275 °C

Input line: # melting point lookup, item Cl.O=C(NC1=Nc2ccccc2C2=NCCN12)c1cccnc1Cl
Output line: 340 °C (dec.)
